From: patent US11319315B2

target: human LPA1 (Homo sapiens); construct: expressed in transfected cells; host or cells: Chinese hamster ovary (CHO) cells; experiment: LPA1 functional antagonist assay (LPA-induced calcium flux in CHO cells overexpressing human LPA1); format: cell-based; settings: inhibition of calcium flux induced by 10 nM LPA, CHO cells overexpressing human LPA1; read-out: hLPA1 IC50
VALUE_KIND: IC50
Please provide the amount together with its unit, number first.

Cc1nc(-c2nnn(C)c2Cn2cnc(CC3CC3)n2)ccc1O[C@H]1CCC[C@H](C(=O)O)C1    0.191 µM
C=C1CC(c2nc(NCc3c(-c4ccc(O[C@H]5CCC[C@H](C(=O)O)C5)c(C)n4)nnn3C)no2)C1    0.0115 µM
Cc1nc(-c2nnn(C)c2COc2cc(-c3ccccn3)on2)ccc1O[C@H]1CCC[C@H](C(=O)O)C1    0.208 µM
Cc1nc(-c2nnn(C)c2Cn2nnnc2C2CCC2)ccc1O[C@H]1CCC[C@H](C(=O)O)C1    0.226 µM
Cn1nnc(-c2ccc(O[C@H]3CCC[C@H](C(=O)O)C3)cn2)c1Cn1nnc(CC2CC2)n1    0.044 µM

Lookup: Let me know recorded IC50 for "Cc1nc(-c2nnn(C)c2CNc2noc(C3(F)CCC3)n2)ccc1O[C@H]1CCC[C@H](C(=O)O)C1" , thanks.
Found: 0.019 µM

Lookup: Specify measured IC50 for "Cn1nnc(-c2ccc(O[C@H]3CCC[C@H](C(=O)O)C3)cn2)c1CNc1noc(CCC2CC2)n1" .
Found: 0.01 µM

---

// values below are reported pIC50
target: human LPA1 (Homo sapiens); construct: expressed in transfected cells; host or cells: Chinese hamster ovary (CHO) cells; experiment: LPA1 functional antagonist assay (LPA-induced calcium flux in CHO cells overexpressing human LPA1); format: cell-based; conditions: inhibition of calcium flux induced by 10 nM LPA, CHO cells overexpressing human LPA1; read-out: hLPA1 IC50
Note: pIC50 values are expressed as the negative base-10 logarithm of concentration in M.

Check out these entries, answers already filled in.
CCCO[C@H](C)c1nc(NCc2c(-c3ccc(O[C@H]4CCC[C@H](C(=O)O)C4)c(C)n3)nnn2C)no1 [Example 219]    7.20
Cc1nc(-c2nnn(C)c2Cn2cc(C(C)C)nn2)ccc1O[C@H]1CCC[C@H](C(=O)O)C1 [Example 82]    6.09
CCCO[C@@H](C)c1nc(NCc2c(-c3ccc(O[C@H]4CCC[C@H](C(=O)O)C4)c(C)n3)nnn2C)no1 [Example 220]    6.80

Lookup: Give a short answer stating reported pIC50 for Cc1nc(-c2nnn(C)c2Cn2nnnc2C2CC2)ccc1O[C@H]1CCC[C@H](C(=O)O)C1 [Example 319] .
Found: 6.17

Lookup: For CCCOCc1nnnn1Cc1c(-c2ccc(O[C@H]3CCC[C@H](C(=O)O)C3)c(C)n2)nnn1C [Example 305] , write its pIC50.
Found: 6.61

Lookup: Determine from records and report pIC50 for CCCCn1cnc(OCc2c(-c3ccc(O[C@H]4CCC[C@H](C(=O)O)C4)c(C)n3)nnn2C)n1 [Example 141]
Found: 7.15

Lookup: Identify measured pIC50 corresponding to CCCc1nnnn1Cc1c(-c2ccc(O[C@H]3CCC[C@H](C(=O)O)C3)c(C)n2)nnn1C [Example 114]
Found: 6.90

---

target: human LPA1 (Homo sapiens, UniProt Q92633); construct: expressed in transfected cells; host or cells: Chinese hamster ovary (CHO) cells; assay: LPA1 functional antagonist assay (LPA-induced calcium flux in CHO cells overexpressing human LPA1); type: cell-based; settings: inhibition of calcium flux induced by 10 nM LPA, CHO cells overexpressing human LPA1; read-out: hLPA1 IC50
Sequence (Q92633 whole entry): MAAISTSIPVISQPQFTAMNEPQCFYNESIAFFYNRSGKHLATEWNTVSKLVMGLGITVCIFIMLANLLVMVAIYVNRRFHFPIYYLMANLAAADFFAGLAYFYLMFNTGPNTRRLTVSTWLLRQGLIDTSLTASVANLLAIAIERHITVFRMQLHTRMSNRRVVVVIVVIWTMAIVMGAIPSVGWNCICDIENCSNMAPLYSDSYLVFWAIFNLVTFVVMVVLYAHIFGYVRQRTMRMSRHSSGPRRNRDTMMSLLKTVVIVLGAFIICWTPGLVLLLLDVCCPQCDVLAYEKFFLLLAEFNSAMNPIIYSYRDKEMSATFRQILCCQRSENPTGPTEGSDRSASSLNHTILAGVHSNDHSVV
VALUE_KIND: IC50 (nM)
Please give a number only; it is taken to be in nM.

Worked cases, IC50 given:
Cc1nc(-c2nnn(C)c2Cn2nnc(OC(C)C)n2)ccc1O[C@H]1CCC[C@H](C(=O)O)C1    49
Cc1nc(-c2nnn(C)c2CNc2nc(-c3ccccc3)ns2)ccc1O[C@H]1CCC[C@H](C(=O)O)C1    38
CCOCc1noc(Cc2c(-c3ccc(O[C@H]4CCC[C@H](C(=O)O)C4)c(C)n3)nnn2C)n1    76
Cn1nnc(-c2ccc(O[C@H]3CCC[C@H](C(=O)O)C3)c(C#N)n2)c1Cn1cc(CC2CCCC2)nn1    60
Cc1nc(-c2nnn(C)c2CNc2nnc(C3CCCC3)o2)ccc1O[C@H]1CCC[C@H](C(=O)O)C1    209

Lookup: Quote IC50 reported for "CCCc1nc(OCc2c(-c3ccc(O[C@H]4CCC[C@H](C(=O)O)C4)c(C)n3)nnn2C)no1" please.
Found: 19

Lookup: Consider the compound "Cc1nc(-c2nnn(C)c2CNc2nc(-c3ccccc3)no2)ccc1O[C@H]1CCC[C@H](C(=O)O)C1" and give its recorded IC50.
Found: 26

Lookup: Supply measured IC50 of "Cc1nc(-c2nnn(C)c2Cn2nc(C3CCC3)oc2=N)ccc1O[C@H]1CCC[C@H](C(=O)O)C1" in your reply.
Found: 137

---

biological target: human LPA1 (Homo sapiens, UniProt Q92633); construct: expressed in transfected cells; host or cells: Chinese hamster ovary (CHO) cells; test: LPA1 functional antagonist assay (LPA-induced calcium flux in CHO cells overexpressing human LPA1); type: cell-based; settings: inhibition of calcium flux induced by 10 nM LPA, CHO cells overexpressing human LPA1; read-out: hLPA1 IC50
Recorded IC50 by entry
Respond with the bare value in nM.

Solved entries (count: 3):
Cc1nc(-c2nnn(C)c2Cn2ncc(CC3CC3)n2)ccc1O[C@H]1CCC[C@H](C(=O)O)C1    14
Cc1nc(-c2nnn(C)c2CNc2nnc(CC(C)C)o2)ccc1O[C@H]1CCC[C@H](C(=O)O)C1    191
Cc1nc(-c2nnn(C)c2CNc2noc(CCC3(C)CC3)n2)ccc1O[C@H]1CCC[C@H](C(=O)O)C1    31

Lookup: Let me know recorded IC50 for "Cc1nc(-c2nnn(C)c2Cc2noc(CCC3CC3)n2)ccc1O[C@H]1CCC[C@H](C(=O)O)C1" , thanks.
Found: 15

Lookup: Quickly give me recorded IC50 for "Cc1nc(-c2nnn(C)c2COc2ncn(CC(C)C)n2)ccc1O[C@H]1CCC[C@H](C(=O)O)C1"
Found: 32

---

Below is a list of entries, each paired with its recorded pIC50 value.
target: human LPA1 (Homo sapiens); construct: expressed in transfected cells; host or cells: Chinese hamster ovary (CHO) cells; test: LPA1 functional antagonist assay (LPA-induced calcium flux in CHO cells overexpressing human LPA1); format: cell-based; settings: inhibition of calcium flux induced by 10 nM LPA, CHO cells overexpressing human LPA1; read-out: hLPA1 IC50
pIC50 here: minus log base 10 of the concentration, concentration in moles per litre.

Here's what some known entries look like.
Cc1nc(-c2nnn(C)c2CNc2noc(C(C)C3CC3)n2)ccc1O[C@H]1CCC[C@H](C(=O)O)C1 (stereo partly shown) [Example 185]    7.62
Cc1nc(-c2nnn(C)c2CNc2nsc(C3CC3)n2)ccc1O[C@H]1CCC[C@H](C(=O)O)C1    5.93
Cc1ccc(Oc2nnn(Cc3c(-c4ccc(O[C@H]5CCC[C@H](C(=O)O)C5)c(C)n4)nnn3C)n2)cc1    7.64
CCCc1cn(Cc2c(-c3ccc(O[C@H]4CCC[C@H](C(=O)O)C4)c(C)n3)nnn2C)nn1 [Example 86]    6.73
Cc1nc(-c2nnn(C)c2Cn2nncc2COc2ccccc2)ccc1O[C@H]1CCC[C@H](C(=O)O)C1    6.76
Cc1ccn(Cc2nnnn2Cc2c(-c3ccc(O[C@H]4CCC[C@H](C(=O)O)C4)c(C)n3)nnn2C)n1    6.02

Lookup: Fill in pIC50 for record "Cc1nc(-c2nnn(C)c2CNc2nc(C3CC3)no2)ccc1O[C@H]1CCC[C@H](C(=O)O)C1"
Found: 6.50

---

molecular target: human LPA1 (Homo sapiens, UniProt Q92633); construct: expressed in transfected cells; host or cells: Chinese hamster ovary (CHO) cells; assay: LPA1 functional antagonist assay (LPA-induced calcium flux in CHO cells overexpressing human LPA1); type: cell-based; details: inhibition of calcium flux induced by 10 nM LPA, CHO cells overexpressing human LPA1; read-out: hLPA1 IC50
pIC50: −log10 of the molar value. Structures can show the parent of a compound that is named as a salt.
Output 1 for pIC50 not less than 7; output -1 otherwise.

Consider the following illustrative entries.
Cc1nc(-c2nnn(C)c2CNc2ncn(-c3cc(F)cc(F)c3)n2)ccc1O[C@H]1CCC[C@H](C(=O)O)C1 [Example 40]    1
CCc1nc(-c2nnn(C)c2Cn2cc(CC3CC3)nn2)ccc1O[C@H]1CCC[C@H](C(=O)O)C1    1
Cc1nc(-c2nnn(C)c2CNc2nc(C(C)C)no2)ccc1O[C@H]1CCC[C@H](C(=O)O)C1    -1
Cc1nc(-c2nnn(C)c2CNc2nnc(C(C)C)o2)ccc1O[C@H]1CCC[C@H](C(=O)O)C1 [Example 42, TFA salt]    -1

// switching to the query compound
Lookup: I'd appreciate it if you could say whether "Cc1nc(-c2nnn(C)c2CNc2nsc(Nc3ccccc3)n2)ccc1O[C@H]1CCC[C@H](C(=O)O)C1" has pIC50 at least equal to 7.
Found: -1
